Data origin: paper PMC4050191

# assay_system: C-terminal domain of human centrin 1 (M93-Y172) (human, UniProt Q12798 93-172)
# Sequence (Q12798 93-172): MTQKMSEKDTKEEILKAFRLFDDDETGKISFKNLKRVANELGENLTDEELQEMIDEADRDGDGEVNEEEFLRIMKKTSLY
# procedure_summary: ITC
measure_name: dH (kcal/mol)

Ac-SQHNRQLLRGALRRWK-NH2 [HsSfiR18, repeat 18 peptide of human Sfi1 (677-692)] :: -22.5
Ac-RADLHHQHSVLHRALQAWVT-NH2 [HsSfiR17, repeat 17 peptide of human Sfi1 (641-660)] :: -18
Ac-NWKLLAKGLLIRERLKR-NH2 [P17-XPC, 17-residue peptide of human XPC] :: -23.3
Ac-TVWAQLARHLVSHQHHLDAR-NH2 [HsSfi1R17inv, repeat 17 peptide of human Sfi1 in reversed sequence orientation] :: -21.6
